- TEST TARGET: Human autotaxin enzyme (Homo sapiens)
- Construct: purchased R&D System
- ASSAY PROCEDURE: Evaluation of autotaxin inhibitor, Method C (Test Example 3): 18:0 Lyso PC, choline assay, Resorufin fluorescence
- Assay type: biochemical
- CONDITIONS: Assay Method C (Test Example 3), human autotaxin, 18:0 Lyso PC substrate; read-out: Inhibitory Activity (autotaxin enzyme inhibitory activity, IC50 class)
pIC50: −log10 of the molar value.
EXPERIMENTAL ENDPOINT: pIC50

Some molecules with known pIC50 results, for comparison:
[
  {
    "MOLECULE": "NC(=O)c1ccc(-c2cc(=O)n3cc([C@H]4CC[C@H](C(F)(F)F)CC4)nc3n2CCCC(F)(F)F)cc1 [Compound 136]",
    "TEST TARGET": "Human autotaxin enzyme (Homo sapiens)",
    "MEAS VALUE": "6.00 to 7.00"
  },
  {
    "MOLECULE": "CCCCCn1c(N2CCCC(CC(=O)OCC)C2)cc(=O)n2cc(-c3ccc(Cl)cc3)nc12 (stereo not shown) [Compound 315]",
    "TEST TARGET": "Human autotaxin enzyme (Homo sapiens)",
    "MEAS VALUE": "6.00 to 7.00"
  },
  {
    "MOLECULE": "CCCCCn1c(-c2ccc(C(=O)NCCNC(=O)OCc3ccccc3)cc2)cc(=O)n2cc(-c3ccc(Cl)cc3)nc12 [Compound 363]",
    "TEST TARGET": "Human autotaxin enzyme (Homo sapiens)",
    "MEAS VALUE": "7.00 to 8.00"
  },
  {
    "MOLECULE": "CN(C)CCNC(=O)c1ccc(-c2cc(=O)n3cc(-c4ccc(Cl)cc4)nc3n2CCCC(F)(F)F)cc1 [Compound 381]",
    "TEST TARGET": "Human autotaxin enzyme (Homo sapiens)",
    "MEAS VALUE": "7.00 to 8.00"
  },
  {
    "MOLECULE": "CCCCCn1c(NCc2ccc(C(=O)O)cc2)cc(=O)n2cc(-c3ccc(Cl)cc3)nc12 [Compound 192]",
    "TEST TARGET": "Human autotaxin enzyme (Homo sapiens)",
    "MEAS VALUE": "7.00 to 8.00"
  }
]

Asked: Fill in the blank: the reported pIC50 of CN(C)CCNC(=O)c1ccc(-c2cc(=O)n3cc(-c4ccc(Cl)cc4)nc3n2CCCCC#N)cc1 [Compound 378] is ____.
Given back: 7.00 to 8.00

Asked: For CCCCCn1c(N2C[C@H](F)C[C@H]2C(=O)NCCC(=O)O)cc(=O)n2cc(-c3ccc(Cl)cc3)nc12 [Compound 579] then?
Given back: 7.00 to 8.00

---

- TEST TARGET: Human autotaxin enzyme (Homo sapiens)
- Construct: purchased R&D System
- ASSAY PROCEDURE: Evaluation of autotaxin inhibitor, Method C (Test Example 3): 18:0 Lyso PC, choline assay, Resorufin fluorescence
- Assay type: biochemical
- CONDITIONS: Assay Method C (Test Example 3), human autotaxin, 18:0 Lyso PC substrate; read-out: Inhibitory Activity (autotaxin enzyme inhibitory activity, IC50 class)
pIC50: −log10 of the molar value.
EXPERIMENTAL ENDPOINT: pIC50

Record excerpt, results attached:
[
  {
    "COMPOUND": "CCCCCn1c(NC(C)=O)cc(=O)n2cc(-c3ccc(Cl)cc3)nc12",
    "TEST TARGET": "Human autotaxin enzyme (Homo sapiens)",
    "pIC50": "6.00 to 7.00"
  },
  {
    "COMPOUND": "CCCCCn1c(N2CCC[C@H]2C(=O)NC(CO)C(=O)O)cc(=O)n2cc(-c3ccc(Cl)cc3)nc12 (stereo partly shown)",
    "TEST TARGET": "Human autotaxin enzyme (Homo sapiens)",
    "pIC50": "7.00 to 8.00"
  },
  {
    "COMPOUND": "CCCCCn1c(N2CCCC(CN)C2)cc(=O)n2cc(-c3ccc(Cl)cc3)nc12 (stereo not shown)",
    "TEST TARGET": "Human autotaxin enzyme (Homo sapiens)",
    "pIC50": "6.00 to 7.00"
  }
]

Attention now shifts to the item below.
Asked: Field request: pIC50 | item: CCCCCn1c(-c2cnc(O)nc2)cc(=O)n2cc(-c3ccc(Cl)cc3)nc12
Given back: 7.00 to 8.00

---

- TEST TARGET: Human autotaxin enzyme (Homo sapiens)
- Construct: purchased R&D System
- ASSAY PROCEDURE: Evaluation of autotaxin inhibitor, Method C (Test Example 3): 18:0 Lyso PC, choline assay, Resorufin fluorescence
- Assay type: biochemical
- CONDITIONS: Assay Method C (Test Example 3), human autotaxin, 18:0 Lyso PC substrate; read-out: Inhibitory Activity (autotaxin enzyme inhibitory activity, IC50 class)
pIC50: −log10 of the molar value.
Reported pIC50 is given for each of the following molecules.

Here is how some molecules turned out for pIC50.
[
  {
    "SMILES REPRESENTATION": "CCCCCn1c(C2=CCN(S(C)(=O)=O)CC2)cc(=O)n2cc(-c3ccc(Cl)cc3)nc12",
    "pIC50": "7.00 to 8.00"
  },
  {
    "SMILES REPRESENTATION": "CCCCCn1c(N2CCC[C@@H]2CC(=O)NCC(=O)O)cc(=O)n2cc(-c3ccc(Cl)cc3)nc12",
    "pIC50": "6.00 to 7.00"
  },
  {
    "SMILES REPRESENTATION": "CCn1c(N2C[C@H](O)C[C@H]2C(=O)NC(C)(C)C(=O)O)cc(=O)n2cc(-c3ccc(Cl)cc3)nc12",
    "pIC50": "6.00 to 7.00"
  },
  {
    "SMILES REPRESENTATION": "CCCCCn1c(OC)cc(=O)n2cc(-c3ccc(Cl)cc3)nc12",
    "pIC50": "6.00 to 7.00"
  },
  {
    "SMILES REPRESENTATION": "CCCCCn1c(-c2ccc(C(=O)NCC(=O)N(C)C)cc2)cc(=O)n2cc(-c3ccc(Cl)cc3)nc12",
    "pIC50": "7.00 to 8.00"
  },
  {
    "SMILES REPRESENTATION": "CCCCCn1c(N2CCN(S(=O)(=O)N3CCOCC3)CC2)cc(=O)n2cc(-c3ccc(Cl)cc3)nc12",
    "pIC50": "6.00 to 7.00"
  }
]

Asked: Recorded pIC50 for O=C(NCCN1CC2(COC2)C1)c1ccc(-c2cc(=O)n3cc([C@H]4CC[C@H](C(F)(F)F)CC4)nc3n2CCCC(F)(F)F)cc1 , please?
Given back: 7.00 to 8.00

Asked: Now consider CCCCCn1c(-c2ccc(OC)nc2)cc(=O)n2cc(-c3ccc(Cl)cc3)nc12 and answer again.
Given back: 7.00 to 8.00

---

- TEST TARGET: Human autotaxin enzyme (Homo sapiens, UniProt Q13822)
- Construct: purchased R&D System
- ASSAY PROCEDURE: Evaluation of autotaxin inhibitor, Method C (Test Example 3): 18:0 Lyso PC, choline assay, Resorufin fluorescence
- Type: biochemical
- CONDITIONS: Assay Method C (Test Example 3), human autotaxin, 18:0 Lyso PC substrate; read-out: Inhibitory Activity (autotaxin enzyme inhibitory activity, IC50 class)
EXPERIMENTAL ENDPOINT: IC50

Below, each entry is followed by its recorded IC50 result.
[
  {
    "COMPOUND": "CCCCCn1c(-c2ccc(SC)cc2)cc(=O)n2cc(-c3ccc(Cl)cc3)nc12 [Compound 432]",
    "TEST TARGET": "Human autotaxin enzyme (Homo sapiens, UniProt Q13822)",
    "IC50": "100 to 1000 nM"
  },
  {
    "COMPOUND": "CCCCCn1c(N2CCC[C@H]2CC(=O)O)cc(=O)n2cc(-c3ccc(Cl)cc3)nc12 [Compound 599]",
    "TEST TARGET": "Human autotaxin enzyme (Homo sapiens, UniProt Q13822)",
    "IC50": "10 to 100 nM"
  },
  {
    "COMPOUND": "CCCCCn1c(-c2ccc(C(=O)NC3CN4CCC3CC4)cc2)cc(=O)n2cc(-c3ccc(Cl)cc3)nc12 (stereo not shown) [Compound 510]",
    "TEST TARGET": "Human autotaxin enzyme (Homo sapiens, UniProt Q13822)",
    "IC50": "< 10 nM"
  },
  {
    "COMPOUND": "CCCCCn1c(-c2cnc(C(=O)NCCC(=O)OC)nc2)cc(=O)n2cc(-c3ccc(Cl)cc3)nc12 [Compound 534]",
    "TEST TARGET": "Human autotaxin enzyme (Homo sapiens, UniProt Q13822)",
    "IC50": "< 10 nM"
  },
  {
    "COMPOUND": "CCCCCn1c(-c2cncc(OC)c2)cc(=O)n2cc(-c3ccc(Cl)cc3)nc12 [Compound 461]",
    "TEST TARGET": "Human autotaxin enzyme (Homo sapiens, UniProt Q13822)",
    "IC50": "10 to 100 nM"
  },
  {
    "COMPOUND": "CCCCCn1c(-c2cnc(OC)c(Cl)c2)cc(=O)n2cc(-c3ccc(Cl)cc3)nc12 [Compound 458]",
    "TEST TARGET": "Human autotaxin enzyme (Homo sapiens, UniProt Q13822)",
    "IC50": "100 to 1000 nM"
  }
]

Kindly review the next compound as well.
Asked: IC50 for CCCCCn1c(N2CCN(C(=O)OC(C)(C)C)C[C@H]2C(=O)O)cc(=O)n2cc(-c3ccc(Cl)cc3)nc12 [Compound 641] ?
Given back: > 1000 nM
